System: SF-295
Assay: NCI tumour cell line growth inhibition, 48 h
Active and inactive are the calls of the source. Rule as the data show it: active = GI50 up to about 1.1 µM and inactive = higher.
Entries annotated with measured GI50

Example compounds with recorded GI50:
{"compound": "CCCCC1Nc2ccccc2-c2ccnc(Cl)c21 (stereo unspecified)", "system": "SF-295", "observed measurement": "21.5 µM (inactive)"}
{"compound": "Cc1ccc(C(=O)N/N=C(\\N=N\\c2ccccc2Cl)c2ccc(N(C)C)cc2)cc1", "system": "SF-295", "observed measurement": "28.8 µM (inactive)"}
{"compound": "O=C(N/N=C/c1ccccc1)c1cccc2nc3ccccc3nc12", "system": "SF-295", "observed measurement": "17.1 µM (inactive)"}

Exercise: Form field: reported GI50 of `O=C1O[C@H](c2ccccc2)[C@@H]2CC3(CCN12)OCCO3`
Key: > 100 µM (inactive)

Exercise: Then this compound: `C[C@H](NS(=O)(=O)c1ccc(NC(=O)c2ccccc2)cc1)C(=O)O`
Key: > 100 µM (inactive)

The reported numbers originate from ChEMBL document CHEMBL1201862.
